Examples of binders with documented IC50, SBE-luciferase reporter in HEK293 cells follow.
Target: T1, Activin B (UniProt P09529 293-407)
T1 sequence (looked up): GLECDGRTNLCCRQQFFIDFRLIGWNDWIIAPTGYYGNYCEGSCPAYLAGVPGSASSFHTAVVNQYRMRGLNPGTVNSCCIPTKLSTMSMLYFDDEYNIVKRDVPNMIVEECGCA
Assay: cell-based or functional assay
Express the result in µg/mL but write the number alone.

ActRIIB-B1B4 (SEQ ID NO: 117) chimera-Fc protein (Fc fusion, Tested as chimera-Fc protein; not shown: linker (if any) and Fc domain) GRGEAETRECLFFNANWELERTNQSGLERCEGEQDKRLHCYASWRNSSGSIEIVKQGCWLDDFNCYDRQECVATEENPQVYFCCCEGNFCNERFTHLPEAGGPEVTYEPPPTAPT :: 0.34

We next turn to a different binder, shown below.
Please supply the value of reported IC50, SBE-luciferase reporter in HEK293 cells for the item ActRIIB-B7 (SEQ ID NO: 115) chimera-Fc protein (Fc fusion, Tested as chimera-Fc protein; not shown: linker (if any) and Fc domain) GRGEAETRECIYYNANWELERTNQSGLERCEGEQDKRLHCYASWRNSSGTIELVKKGCWLDDFNCYDRQECVATEENPQVYFCCCEGNFCNEKFSYFPEAGGPEVTYEPPPTAPT
0.12

These measurements were taken from patent US20250270287A1.
